# Tested on: Klebsiella pneumoniae NCIMB 13218
# ASSAY SUMMARY: ≥ marks a high value that may be exact or a test limit, other limits are often not marked, values filed in µg/mL are converted to µM
MEASUREMENT NAME: MIC

Look over these answered cases.
CC(C)C[C@H](NC(=O)[C@H](CC(C)C)NC(=O)[C@H](CC(N)=O)NC(=O)[C@H](C)NC(=O)[C@H](CC(N)=O)NC(=O)[C@H](CC(C)C)NC(=O)[C@@H](N)C(C)C)C(=O)N[C@@H](CCCN=C(N)N)C(=O)O = ≥ 2500 µM
CC[C@H](C)[C@H](N)C(=O)N[C@@H](CCCCN)C(=O)N[C@@H](C)C(=O)N[C@@H](CCC(N)=O)C(=O)NCC(=O)N[C@@H](CC(C)C)C(=O)N1CCC[C@H]1C(=O)N[C@@H](CCC(N)=O)C(=O)N[C@@H](CCC(=O)O)C(=O)O = ≥ 1250 µM

Lookup result for CC[C@H](C)[C@H](N)C(=O)N[C@@H](CCCN=C(N)N)C(=O)N[C@@H](Cc1cnc[nH]1)C(=O)N[C@@H](CCC(N)=O)C(=O)NCC(=O)N[C@@H](CC(C)C)C(=O)N1CCC[C@H]1C(=O)N[C@@H](CCC(N)=O)C(=O)N[C@@H](CCC(=O)O)C(=O)O ; measured MIC: ≥ 2500 µM

====

The next entries give measured MIC for Bacillus subtilis ATCC 6633.
Quick reminder: number only, in µM, skip the unit.

CC(C)[C@H](N)C(=O)N[C@@H](C)C(=O)N[C@@H](CCC(=O)O)C(=O)N[C@@H](C)C(=O)N[C@@H](CCCN=C(N)N)C(=O)N[C@@H](CCC(N)=O)C(=O)NCC(=O)N[C@@H](CO)C(=O)N[C@@H](Cc1ccccc1)C(=O)N[C@@H](CO)C(=O)N[C@@H](Cc1ccc(O)cc1)C(=O)O = 25
CC[C@H](C)[C@H](NC(=O)CNC(=O)[C@H](CCC(=O)O)NC(=O)[C@H](Cc1c[nH]c2ccccc12)NC(=O)[C@@H](NC(=O)[C@H](CCCCN)NC(=O)CNC(=O)[C@H](CC(C)C)NC(=O)[C@@H](N)Cc1c[nH]c2ccccc12)[C@@H](C)CC)C(=O)N[C@@H](CCCCN)C(=O)N[C@@H](CO)C(=O)N[C@@H](CC(C)C)C(=O)N[C@@H](Cc1ccccc1)C(N)=O = 0.78

Next compound, please.
# compound CC(C)[C@H](NC(=O)CNC(=O)[C@H](CC(N)=O)NC(=O)[C@H](CCCN=C(N)N)NC(=O)[C@H](Cc1ccc(O)cc1)NC(=O)[C@@H](NC(=O)[C@@H](NC(=O)[C@H](CC(N)=O)NC(=O)[C@H](Cc1c[nH]c2ccccc12)NC(=O)[C@H](Cc1ccccc1)NC(=O)CN)C(C)C)C(C)C)C(=O)N[C@@H](CCCN=C(N)N)C(=O)N[C@H](C(=O)N[C@@H](Cc1cnc[nH]1)C(=O)N[C@@H](CCCN=C(N)N)C(=O)N[C@@H](CCCN=C(N)N)C(=O)N[C@@H](CC(N)=O)C(=O)O)C(C)C ; its MIC = 30.1

====

Reported MIC by item:
# System: Escherichia coli K12 MG1655
Could you give me the number in µM? Just the number is fine.

CC[C@H](C)[C@H](NC(=O)[C@H](CCCN=C(N)N)NC(=O)[C@H](CCCCN)NC(=O)[C@H](Cc1c[nH]c2ccccc12)NC(=O)[C@H](CCCN=C(N)N)NC(=O)[C@H](CCCCN)NC(=O)[C@H](Cc1c[nH]c2ccccc12)NC(=O)[C@@H](N)Cc1c[nH]c2ccccc12)C(=O)N[C@@H](CCCN=C(N)N)C(=O)N[C@@H](CCCN=C(N)N)C(=O)N[C@H](C(=O)N[C@@H](Cc1ccccc1)C(=O)N[C@@H](CCSC)C(=O)N[C@@H](CCSC)C(=O)N[C@H](C(=O)O)C(C)C)[C@@H](C)CC [WWKRWKRIRRIFMMV] = 1.82

Please find the next molecule below.
Value of MIC reported for the molecule CC[C@H](C)[C@H](NC(=O)[C@H](CCCCN)NC(=O)[C@H](CCC(N)=O)NC(=O)[C@H](Cc1c[nH]c2ccccc12)NC(=O)[C@@H](NC(=O)[C@H](CCCCN)NC(=O)[C@@H](N)CCCCN)[C@@H](C)CC)C(=O)N[C@@H](CCCCN)C(=O)N[C@@H](CC(N)=O)C(=O)N[C@@H](Cc1ccccc1)C(=O)N[C@@H](Cc1ccccc1)C(=O)N[C@@H](CCC(N)=O)C(=O)N[C@@H](CCCCN)C(=O)N[C@@H](CC(C)C)C(=O)O [KKIWQKIKNFFQKL] is 6.25

====

# Tested on: Bacillus subtilis ATCC 6633
MEASUREMENT NAME: MIC (µM)
Quick reminder: number only, in µM, skip the unit.

For record CC(C)C[C@H](NC(=O)[C@H](CCCCN)NC(=O)[C@H](CCCCN)NC(=O)[C@H](CC(C)C)NC(=O)[C@H](CC(C)C)NC(=O)[C@H](CCCCN)NC(=O)[C@H](CCCCN)NC(=O)[C@H](CC(C)C)NC(=O)[C@H](Cc1c[nH]c2ccccc12)NC(=O)[C@H](CCCCN)NC(=O)[C@@H](N)CC(C)C)C(N)=O the listed MIC is 1.42

====

# Test system: Escherichia coli SBS 363
MEASUREMENT NAME: MIC (µM)
Write the number in µM without appending the unit.

Entry CC[C@H](C)[C@H](NC(=O)CNC(=O)[C@H](CCC(=O)O)NC(=O)[C@H](Cc1c[nH]c2ccccc12)NC(=O)[C@@H](NC(=O)[C@H](CCCCN)NC(=O)CNC(=O)[C@H](CC(C)C)NC(=O)[C@@H](N)Cc1c[nH]c2ccccc12)[C@@H](C)CC)C(=O)N[C@@H](CCCCN)C(=O)N[C@@H](CO)C(=O)N[C@@H](CC(C)C)C(=O)N[C@@H](Cc1ccccc1)C(N)=O ; assay system Escherichia coli SBS 363; MIC recorded at 1.56

====

# System: Salmonella enterica serovar Typhimurium
MEASUREMENT NAME: MIC

Tested on Salmonella enterica serovar Typhimurium, the item CC(C)C[C@H](NC(=O)[C@H](C)NC(=O)[C@H](CC(C)C)NC(=O)[C@H](C)NC(=O)[C@H](CC(C)C)NC(=O)[C@H](CCCCN)NC(=O)[C@H](C)NC(=O)[C@H](CC(C)C)NC(=O)[C@H](CCCCN)NC(=O)[C@H](CCCCN)NC(=O)[C@H](C)NC(=O)[C@H](CC(C)C)NC(=O)[C@H](CCCCN)NC(=O)[C@H](C)NC(=O)[C@H](CC(C)C)NC(=O)[C@H](CCCCN)NC(=O)[C@H](CCCCN)NC(=O)[C@H](C)NC(=O)[C@@H](N)C(C)C)C(N)=O showed MIC equal to ≥ 32.1 µM

====

Below are compounds with their MIC as measured on Klebsiella pneumoniae NCIMB 13218.

CC(C)C[C@H](NC(=O)[C@H](CC(C)C)NC(=O)[C@H](CC(N)=O)NC(=O)[C@H](CCC(=O)O)NC(=O)[C@H](CC(N)=O)NC(=O)[C@H](CC(C)C)NC(=O)[C@@H](N)C(C)C)C(=O)N[C@@H](Cc1cnc[nH]1)C(=O)O = ≥ 1250 µM

Now consider a different compound.
So, CC[C@H](C)[C@H](N)C(=O)N[C@@H](CCCCN)C(=O)N[C@@H](Cc1cnc[nH]1)C(=O)N[C@@H](CCCN=C(N)N)C(=O)NCC(=O)N[C@@H](CC(C)C)C(=O)N1CCC[C@H]1C(=O)N[C@@H](CCC(N)=O)C(=O)N[C@@H](CCC(=O)O)C(=O)O ? Its MIC was ≥ 1250 µM

====

# Streptococcus mutans UA159: MIC values follow
Record the value in µM, omitting the unit from your answer.

NCCCC[C@H](NC(=O)[C@H](Cc1c[nH]c2ccccc12)NC(=O)[C@H](CCCCN)NC(=O)[C@H](CCCCN)NC(=O)[C@H](Cc1ccccc1)NC(=O)[C@H](Cc1ccccc1)NC(=O)[C@H](CCCCN)NC(=O)[C@H](CCCCN)NC(=O)[C@H](Cc1ccccc1)NC(=O)[C@H](Cc1ccccc1)NC(=O)[C@H](CCCCN)NC(=O)[C@@H](N)Cc1ccccc1)C(=O)O = 9.36

// moving on: another record for MIC
MIC for NCCCC[C@H](NC(=O)[C@H](Cc1c[nH]c2ccccc12)NC(=O)[C@H](Cc1ccccc1)NC(=O)[C@H](CCCCN)NC(=O)[C@H](CCCCN)NC(=O)[C@@H](N)Cc1ccccc1)C(=O)N[C@@H](Cc1c[nH]c2ccccc12)C(=O)N[C@@H](Cc1ccccc1)C(=O)N[C@@H](CCCN=C(N)N)C(=O)N[C@@H](CCCN=C(N)N)C(=O)N[C@@H](Cc1ccccc1)C(=O)O is 7
